assay: Bioavailability in rat under fed condition at 10 mg/kg, ID; format: ADME, organism-based; details: in vivo
EXPERIMENTAL_READOUT: bioavailability (%)
One number for each entry, in %.

Problem: Return bioavailability (reported value) for this compound: "Cc1ccccc1CNC(=O)[C@H]1N(C(=O)[C@@H](O)[C@H](Cc2ccccc2)NC(=O)c2cccc(O)c2C)CSC1(C)C"
Result: 33

====

assay: Half life in rat at 10 mg/kg, po or iv; type: ADME, organism-based; conditions: in vivo
EXPERIMENTAL_READOUT: half-life

Problem: Give half-life for the following compound: "CC(C)[C@@H](Nc1ccc(CNC(=O)[C@@H]2SCCN2C(=O)C[C@H](N)Cc2cc(F)c(F)cc2F)cc1)C(=O)O"
Result: > 3 h

====

For each record, write down the corresponding bioavailability.
assay: Oral bioavailability in monkey at 3 mg/kg; assay type: ADME, organism-based, Macaca mulatta; conditions: rhesus monkey, in vivo

- STRUCTURE_NOTATION: "CC(C)[C@H](Nc1ccc(CNC(=O)[C@@H]2CSCN2C(=O)C[C@H](N)Cc2cc(F)ccc2F)cc1)C(=O)O"
  EXPERIMENTAL_READOUT: "bioavailability"
  RESULT: "< 2.5%"

Then there is this molecule:
Problem: Give a short answer stating reported bioavailability for "CC(C)[C@@H](Nc1ccc(CNC(=O)[C@@H]2SCCN2C(=O)C[C@H](N)Cc2cc(F)c(F)cc2F)cc1)C(=O)O" .
Result: < 2.5%

====

assay: Octanol-water partition coefficient, logP of the compound; type: physicochemical
EXPERIMENTAL_READOUT: logP
Numbers only.

Can you give me logP for all of these, one by one?
1. C[Si]1(C)C[C@@H](C(=O)O)N(C(=O)OCC2c3ccccc3-c3ccccc32)C1
2. O=C(O)[C@@H]1CCCN1C(=O)OCC1c2ccccc2-c2ccccc21

Result:
[1.3, 0.094]

====

Molecular target: Prolyl endopeptidase (Homo sapiens)
Sequence (P48147 whole entry): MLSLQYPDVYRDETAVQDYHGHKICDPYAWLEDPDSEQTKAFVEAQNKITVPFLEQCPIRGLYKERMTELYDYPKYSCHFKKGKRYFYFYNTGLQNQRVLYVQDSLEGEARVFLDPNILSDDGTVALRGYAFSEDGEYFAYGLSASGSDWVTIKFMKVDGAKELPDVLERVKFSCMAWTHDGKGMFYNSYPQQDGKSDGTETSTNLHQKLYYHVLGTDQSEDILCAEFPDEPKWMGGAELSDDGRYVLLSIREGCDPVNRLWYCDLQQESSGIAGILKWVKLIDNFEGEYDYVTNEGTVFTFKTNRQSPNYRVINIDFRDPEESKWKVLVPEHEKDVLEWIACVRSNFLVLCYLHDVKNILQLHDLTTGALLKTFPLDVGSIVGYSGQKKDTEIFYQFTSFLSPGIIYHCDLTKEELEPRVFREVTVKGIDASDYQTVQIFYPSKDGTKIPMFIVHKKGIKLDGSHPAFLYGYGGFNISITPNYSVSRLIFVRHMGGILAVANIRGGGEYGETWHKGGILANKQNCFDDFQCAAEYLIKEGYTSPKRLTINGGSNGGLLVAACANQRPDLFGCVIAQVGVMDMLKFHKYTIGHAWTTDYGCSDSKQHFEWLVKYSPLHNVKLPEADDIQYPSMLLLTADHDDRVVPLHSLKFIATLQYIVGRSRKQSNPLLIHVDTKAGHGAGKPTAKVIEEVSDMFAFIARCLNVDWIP
EXPERIMENTAL_READOUT: pIC50
Give bare numbers, as −log10 of the molar value.

Problem: Supply measured pIC50 of "N#C[C@@H]1CS[C@H]2C[C@H](NC(=O)OCc3ccccc3)C(=O)N12" in your reply.
Result: 4.00
